- Test system: NCI-H322M lung
- Assay summary: NCI-60 one-dose screen, 48 h
- Settings: 10 µM unless noted
Compounds without any hit were thinned out: in the full panel of roughly 83,000, 20% have a hit. The source made the active and inactive calls. How the source made its calls: active means growth percent below 10; inactive means the rest.
Please reply with one of these outcomes: active, inactive

*Q* How did this test come out for `COc1cc2ncnc(Nc3ccc(F)c(Cl)c3)c2cc1NC(=O)/C=C/CN1CCCCC1` ?
*A* active

*Q* For COC(=O)[C@@H](OC)[C@@H]1Cc2cc3cc(OC4CC(OC5CC(O)C(O)C(C)O5)C(O)C(C)O4)c(C)c(O)c3c(O)c2C(=O)[C@H]1OC1CC(OC2CC(OC3CC(C)(O)C(O)C(C)O3)C(O)C(C)O2)C(O)C(C)O1 (stereo partly drawn) , what call appears in the results of this test?
*A* inactive

*Q* Assay result, entry `Cn1cc(-c2[nH]c3cc(NC(=O)[C@H](N)C4CCCCC4)cc4c3c2C=NNC4=O)cn1` — outcome?
*A* inactive

*Q* What did this assay record as the result for `C[C@@H](Oc1cc(-c2cnn(C3CCNCC3)c2)cnc1N)c1c(Cl)ccc(F)c1Cl` ?
*A* inactive

*Q* Tell me the recorded outcome of this test for `COc1ccc2c(CCC(c3ccccc3)c3ccccc3)c3[n+](cc2c1OC)CCc1cc2c(cc1-3)OCO2` .
*A* inactive

* * *

- Tested on: MOLT-4 leukemia
- Assay summary: NCI-60 one-dose screen, 48 h (100 = growth as untreated, 0 = no growth, -100 = all killed)
- Settings: 10 µM unless noted
This is part of a sample that, as a whole, favours compounds with a hit. Of some 83,000 tested, about 20% had one in any assay.
Outcome measure: growth (%)
Answers are plain numbers, in %.

- Compound: "COC(=O)[C@]12CC[C@@H](C)[C@H](C)[C@@H]1C1=CC[C@@H]3[C@@]4(C)C(C=O)=C[C@@](C)(COS(C)(=O)=O)C4=CC[C@@]3(C)[C@]1(C)CC2"
  Outcome measure: "growth"
  Value: 0.901

Dear colleague, could you please provide growth for the compounds listed below?
1. CC(=O)C1CC(C)CCC1C(C)C (stereo unspecified)
2. O=[N+]([O-])c1cc(Br)cc2c1[nH]c1ccc(Br)cc12
3. Cc1cc(-c2cc(O)ccc2Cl)cc2nnc(Nc3ccc(OCCN4CCCC4)cc3)nc12
4. O=C(Cn1ccc2ccccc21)Nc1ccc(-c2nc3ccccc3s2)cc1
5. Nc1c(Cl)cccc1[N+](=O)[O-]
6. O=C(NCCO)Nc1ccc(-c2nc(N3CCOCC3)c3cccn3n2)cc1

*A*
1: 83.1; 2: 77.1; 3: -42.9; 4: 94.5; 5: 99.6; 6: 16.2

// each compound listed below needs its growth
1. O=c1[nH]ccc2c(S(=O)(=O)N3CCCNCC3)cccc12
2. NC1(C(=O)N[C@@H](CCO)c2ccc(Cl)cc2)CCN(c2ncnc3[nH]ccc23)CC1
3. COc1ccc2nc3cc(Cl)ccc3c(Nc3ccc(N(C)C)cc3)c2c1

*A*
1. 84.9
2. 11.4
3. 0.475

// each compound listed below needs its growth
1. CCN(CC)Cc1cc(Nc2cc(C(F)(F)F)c(C#N)c3nc4ccccc4n23)ccc1O
2. Cc1cc(Nc2nc(N[C@@H](C)c3ncc(F)cn3)ncc2Cl)n[nH]1

*A*
1. 4.11
2. 62.3

Parameter requested: growth. Apply to each item below.
1. COc1cc2ncnc(Nc3cccc(Cl)c3F)c2cc1OC(=O)N1CCN(C)C[C@H]1C
2. COc1ccc(-c2ccc3ncc4c(c3c2)n(-c2ccc(N3CCNCC3)c(C(F)(F)F)c2)c(=O)n4C)cn1
3. O=S1(=O)OC(c2cc(Cl)c(O)c(Br)c2)(c2cc(Cl)c(O)c(Br)c2)c2ccccc21
4. CCN(CC)CCNc1ccc(N=Nc2cnc3ccccc3c2)c2ccccc12
5. CC(C)(C)c1ccc(Cn2cc(CSc3nc4ccccc4s3)nn2)cc1
6. C/C=C/C=N/NC(=S)Nc1ccccc1
7. COc1ccc(CCCc2c3[n+](cc4c(OC)c(OC)ccc24)CCc2cc4c(cc2-3)OCO4)cc1

*A*
[67.7, -50.8, 92.4, -49.7, 95.7, 99.2, 76.8]

Below is a list of compounds. For each, state its recorded growth.
1. c1cc[n+](Cc2c3ccccc3cc3c2ccc2ccccc23)cc1
2. O=C(Cn1ccnc1)Nc1ccc(-c2nc3ccccc3s2)cc1

*A*
25.6
68.1

* * *

Assign growth to each entry below.
- System: U251 CNS
- Assay summary: NCI-60 one-dose screen, 48 h (100 = growth as untreated, 0 = no growth, -100 = all killed)
- Settings: 10 µM unless noted
About 83,000 compounds went through this panel and 20% of them were active in at least one assay; those are over-represented in the sample as a whole. Activity calls are given as the source filed them. Rule for the calls: active = growth percent below 10; inactive = the rest.

- Molecule: "Cc1nn(-c2nc3ccccc3[nH]2)c2c1C(c1ccc(O)cc1)CC(=O)N2 (centres undefined)"
  Test system: "U251 CNS"
  growth: "76.4% (inactive)"
- Molecule: "CCCC(=O)OCC1OC(n2cnc3c(=S)nc(N)[nH]c32)C(OC(=O)CCC)C1OC(=O)CCC (centres undefined)"
  Test system: "U251 CNS"
  growth: "68.2% (inactive)"

Lab note: each molecule below needs its growth filled in.
1. C/C=C/C=N/NC(=S)Nc1ccccc1
2. Nc1c(C(=O)c2ccccc2)sc2nc(-c3cccs3)ccc12
3. COC(=O)C1=C(C(=O)OC)C23C=C(C)C1C2=C(C)C1(CC1)[C@@](C)(O)C3=O (some centres undefined)

*A*
1. 88.4% (inactive)
2. 17.6% (inactive)
3. 2.06% (active)

Please state growth for every molecule in the list that follows.
1. CN(C[C@@H]1COCCO1)S(=O)(=O)Nc1ccc2ccc3ncc(-c4cnn(C)c4)cc3c(=O)c2c1
2. COc1cc(Nc2ncc(F)c(Nc3ccc4c(n3)NC(=O)C(C)(C)O4)n2)cc(OC)c1OC
3. O=c1[nH]c([C@@H]2CCCN2)nc2c1oc1ccc(Cl)cc12

*A*
1: 37.4% (inactive); 2: 48.5% (inactive); 3: 42.6% (inactive)

Measured growth, `CCCCCCCC(=O)SCC/C=C/[C@@H]1CC(=O)NCc2nc(co2)C2=N[C@@](C)(CS2)C(=O)N[C@@H](C(C)C)C(=O)O1` : -61.2% (active)

* * *

- System: EKVX NSCLC
- Assay summary: NCI-60 one-dose screen, 48 h (100 = growth as untreated, 0 = no growth, -100 = all killed)
- Settings: 10 µM unless noted
About 83,000 compounds went through this panel and 20% of them were active in at least one assay; those are over-represented in the sample as a whole.
Label YES when growth is strictly below 90%; otherwise label NO.

- Compound: "COc1cnc2c(c1)C(=O)c1c-2n(CCCN2CCC(O)CC2)c(=O)c2cc(Cl)ccc12"
  Class label: "YES"
- Compound: "CCN1CCN(c2nc(C)cc(N(CCNc3ccnc4cc(Cl)ccc34)Cc3ccc4c(c3)OCO4)n2)CC1"
  Class label: "YES"
- Compound: "Cc1cc(Nc2nc(N[C@@H](C)c3ncc(F)cn3)ncc2Cl)n[nH]1"
  Class label: "NO"
- Compound: "CC(=O)Oc1ccccc1C(=O)N=C1[Se]CCN1C(=O)c1ccccc1OC(C)=O"
  Class label: "YES"
- Compound: "C=CCN1C(=O)c2cccc3c(-c4ccc5c(c4)ncn5C4CCCCC4)ccc(c23)C1=O"
  Class label: "YES"

*Q* Dear reviewer, please state whether `CC(C)c1ccc(/C=N/Nc2nc3ccccc3s2)cc1` has growth strictly beneath 90%.
*A* YES

*Q* Record `CN1CCN(c2nc(NCCNc3ccnc4cc(Cl)ccc34)c3ccccc3n2)CC1` : is its growth strictly below 90%?
*A* YES

* * *

Hi there, I'd appreciate the recorded growth for every entry that follows.
- Test system: MCF7 breast
- Assay summary: NCI-60 one-dose screen, 48 h (100 = growth as untreated, 0 = no growth, -100 = all killed)
- Settings: 10 µM unless noted
About 83,000 compounds went through this panel and 20% of them were active in at least one assay; those are over-represented in the sample as a whole.
Answers are plain numbers, in %.

Take a look at these entries with their results.
- Compound: "CS(=O)(=O)CCNCc1ccc(-c2ccc3ncnc(Nc4ccc(OCc5cccc(F)c5)c(Cl)c4)c3c2)o1"
  Unit of measurement: "%"
  Value: -39.3
- Compound: "COC(=O)[C@]12CC[C@@H](C)[C@H](C)[C@@H]1C1=CC[C@@H]3[C@@]4(C)C(C=O)=C[C@@](C)(COS(C)(=O)=O)C4=CC[C@@]3(C)[C@]1(C)CC2"
  Unit of measurement: "%"
  Value: -16.8

Let's switch to this compound now.
According to the records, this compound COC(=O)[C@H](Cc1ccc(O)cc1)NC(=O)[C@@H](OC)[C@@H]1Cc2cc3cc(OC4CC(OC5CC(O)C(O)C(C)O5)C(O)C(C)O4)c(C)c(O)c3c(O)c2C(=O)[C@H]1OC1CC(OC2CC(OC3CC(C)(O)C(O)C(C)O3)C(O)C(C)O2)C(O)C(C)O1 (stereo partly drawn) displays growth of 8.15

The reported measurements were obtained from PubChem BioAssay (NCI).
